- System: purified human HDAC6 (Homo sapiens, UniProt Q9UBN7)
- Construct: purchased BPS Bioscience 5006
- Sequence (Q9UBN7 1-1215): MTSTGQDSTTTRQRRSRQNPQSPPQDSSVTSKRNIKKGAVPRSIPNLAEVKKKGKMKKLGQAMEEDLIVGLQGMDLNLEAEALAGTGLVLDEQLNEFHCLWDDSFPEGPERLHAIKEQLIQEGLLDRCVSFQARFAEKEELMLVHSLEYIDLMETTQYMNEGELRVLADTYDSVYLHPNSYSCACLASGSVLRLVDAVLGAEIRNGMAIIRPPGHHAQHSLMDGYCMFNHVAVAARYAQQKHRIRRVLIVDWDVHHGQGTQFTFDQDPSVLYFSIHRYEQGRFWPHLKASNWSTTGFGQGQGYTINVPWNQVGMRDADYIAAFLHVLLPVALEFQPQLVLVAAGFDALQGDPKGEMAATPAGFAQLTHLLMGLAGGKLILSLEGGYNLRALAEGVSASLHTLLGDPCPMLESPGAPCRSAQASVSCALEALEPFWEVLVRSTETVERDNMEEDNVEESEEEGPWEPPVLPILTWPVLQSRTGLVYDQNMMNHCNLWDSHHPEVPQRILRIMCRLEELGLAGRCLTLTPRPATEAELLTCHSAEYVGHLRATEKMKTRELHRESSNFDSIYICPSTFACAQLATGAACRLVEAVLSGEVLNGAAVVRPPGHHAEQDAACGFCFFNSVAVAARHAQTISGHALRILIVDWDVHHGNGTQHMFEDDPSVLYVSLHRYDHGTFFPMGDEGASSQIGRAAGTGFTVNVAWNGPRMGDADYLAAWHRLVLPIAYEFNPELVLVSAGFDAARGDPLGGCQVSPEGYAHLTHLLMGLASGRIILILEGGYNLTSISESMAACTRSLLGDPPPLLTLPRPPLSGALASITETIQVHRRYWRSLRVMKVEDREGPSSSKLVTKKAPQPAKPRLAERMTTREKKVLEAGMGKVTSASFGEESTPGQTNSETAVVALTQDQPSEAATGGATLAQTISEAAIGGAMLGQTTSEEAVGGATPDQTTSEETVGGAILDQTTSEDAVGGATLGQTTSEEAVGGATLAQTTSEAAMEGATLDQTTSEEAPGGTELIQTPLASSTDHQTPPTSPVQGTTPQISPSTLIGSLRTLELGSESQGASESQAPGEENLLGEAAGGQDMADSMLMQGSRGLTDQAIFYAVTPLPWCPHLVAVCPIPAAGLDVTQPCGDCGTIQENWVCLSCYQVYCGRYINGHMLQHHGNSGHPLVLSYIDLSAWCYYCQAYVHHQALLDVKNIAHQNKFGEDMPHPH
- Assay: HDAC6 Enzyme Assay
- Format: biochemical
- Cond: test compound at 1.235 μM; substrate Ac-Arg-Gly-Lys(Ac)-AMC, 1 hour at 30° C.; read-out: Percent Inhibition at 1.235 μM
Readout Name: inhibition at 1.235 µM (%)

The following compounds have reported results that may help.
> print(dat)
                                 smiles.str            readout.name  result.number
1  O=C(NO)c1ccc2c(n1)CCN(C(=O)NCc1ccccc1)C2  inhibition at 1.235 µM           60.4
2  COc1ccc(C(=O)N2CCc3nc(C(=O)NO)ccc3C2)cc1  inhibition at 1.235 µM             67
3  CC(C)(C)c1ccccc1NC(=O)N1CCc2nc(C(=O)NO)ccc2C1  inhibition at 1.235 µM           50.4
4  O=C(NO)c1cnc2c(c1)CCN(C(=O)c1ccc(Cl)cc1)C2  inhibition at 1.235 µM           91.9
5  O=C(NO)c1cnc2c(c1)CCN(C(=O)c1cc3ccccc3s1)C2  inhibition at 1.235 µM           97.2
6  O=C(NO)c1ccc2c(n1)CCN(C(=O)c1cc3ccccc3o1)C2  inhibition at 1.235 µM           89.9
7  O=C(NO)c1cnc2c(c1)CN(C(=O)c1[nH]c3ccccc3c1-c1ccccc1)CC2  inhibition at 1.235 µM           97.8
8  O=C(NO)c1ccc2c(n1)CCN(C(=O)C13CC4CC(CC(C4)C1)C3)C2  inhibition at 1.235 µM           90.2

(a) CC(C)(C)c1ccc(C(=O)N2CCc3ncc(C(=O)NO)cc3C2)cc1
(b) O=C(NO)c1ccc2c(n1)CCN(C(=O)Nc1ccccc1)C2
(c) O=C(NO)c1ccc2c(n1)CCN(C(=O)NC1CCCCC1)C2
[Q] I would appreciate it if you could sort these 3 compounds by inhibition at 1.235 µM, starting from the smallest number. When ranking, write the labels in the order the request describes.
[A] c, b, a

----------
- System: purified human HDAC6 (Homo sapiens)
- Construct: purchased BPS Bioscience 5006
- Assay: HDAC6 Enzyme Assay
- Assay type: biochemical
- Cond: test compound at 1.235 μM; substrate Ac-Arg-Gly-Lys(Ac)-AMC, 1 hour at 30° C.; read-out: Percent Inhibition at 1.235 μM
Readout Name: inhibition at 1.235 µM (%)

(a) O=C(NO)c1cnc2c(c1)CCN(C(=O)c1cc3ccccc3o1)C2
(b) CCC(C)NC(=O)N1CCc2nc(C(=O)NO)ccc2C1 (centres unmarked)
[Q] Form field 'greater inhibition at 1.235 µM' accepts a or b ; which applies? Answer format: the label of the selected item.
[A] a

(A) O=C(NO)c1ccc2c(n1)CCN(C(=O)NC13CC4CC(CC(C4)C1)C3)C2
(B) CCc1cccc(CC)c1NC(=O)N1CCc2nc(C(=O)NO)ccc2C1
[Q] Choose between A and B : whose measured inhibition at 1.235 µM value is numerically larger? Mark your selection by writing its label.
[A] A
(A: 70.6%, B: 34.3%)

----------
- System: purified human HDAC6 (Homo sapiens, UniProt Q9UBN7)
- Construct: purchased BPS Bioscience 5006
- Assay: HDAC6 Enzyme Assay
- Assay type: biochemical
- Cond: test compound at 1.235 μM; substrate Ac-Arg-Gly-Lys(Ac)-AMC, 1 hour at 30° C.; read-out: Percent Inhibition at 1.235 μM
Readout Name: inhibition at 1.235 µM (%)

Example cases with answers are listed next.
> print(dat)
                                   molecule                                    system            readout.name  result.number
1  O=C(NO)c1ccc2c(n1)CCN(C(=O)c1[nH]c3ccccc3c1-c1ccccc1)C2 [Compound I-7]  purified human HDAC6 (Homo sapiens, UniProt Q9UBN7)  inhibition at 1.235 µM             79
2  Cc1nc(-c2ccccn2)sc1C(=O)N1CCc2ncc(C(=O)NO)cc2C1 [Compound I-23]  purified human HDAC6 (Homo sapiens, UniProt Q9UBN7)  inhibition at 1.235 µM             92
3  CC(C)(C)c1ccc(C(=O)N2CCc3cc(C(=O)NO)cnc3C2)cc1 [Compound I-41]  purified human HDAC6 (Homo sapiens, UniProt Q9UBN7)  inhibition at 1.235 µM           93.4

(I) O=C(NO)c1ccc2c(n1)CCN(C(=O)c1cc3ccccc3s1)C2 [Compound I-49]
(II) CCCNC(=O)N1CCc2nc(C(=O)NO)ccc2C1 [Compound I-36]
(III) CC(C)(C)C(=O)N1CCc2nc(C(=O)NO)ccc2C1 [Compound I-46]
[Q] // ascending sort on recorded inhibition at 1.235 µM Your reply should list the labels following the order given in the request.
[A] II, III, I

----------
- System: purified human HDAC6 (Homo sapiens, UniProt Q9UBN7)
- Construct: purchased BPS Bioscience 5006
- Sequence (Q9UBN7 1-1215): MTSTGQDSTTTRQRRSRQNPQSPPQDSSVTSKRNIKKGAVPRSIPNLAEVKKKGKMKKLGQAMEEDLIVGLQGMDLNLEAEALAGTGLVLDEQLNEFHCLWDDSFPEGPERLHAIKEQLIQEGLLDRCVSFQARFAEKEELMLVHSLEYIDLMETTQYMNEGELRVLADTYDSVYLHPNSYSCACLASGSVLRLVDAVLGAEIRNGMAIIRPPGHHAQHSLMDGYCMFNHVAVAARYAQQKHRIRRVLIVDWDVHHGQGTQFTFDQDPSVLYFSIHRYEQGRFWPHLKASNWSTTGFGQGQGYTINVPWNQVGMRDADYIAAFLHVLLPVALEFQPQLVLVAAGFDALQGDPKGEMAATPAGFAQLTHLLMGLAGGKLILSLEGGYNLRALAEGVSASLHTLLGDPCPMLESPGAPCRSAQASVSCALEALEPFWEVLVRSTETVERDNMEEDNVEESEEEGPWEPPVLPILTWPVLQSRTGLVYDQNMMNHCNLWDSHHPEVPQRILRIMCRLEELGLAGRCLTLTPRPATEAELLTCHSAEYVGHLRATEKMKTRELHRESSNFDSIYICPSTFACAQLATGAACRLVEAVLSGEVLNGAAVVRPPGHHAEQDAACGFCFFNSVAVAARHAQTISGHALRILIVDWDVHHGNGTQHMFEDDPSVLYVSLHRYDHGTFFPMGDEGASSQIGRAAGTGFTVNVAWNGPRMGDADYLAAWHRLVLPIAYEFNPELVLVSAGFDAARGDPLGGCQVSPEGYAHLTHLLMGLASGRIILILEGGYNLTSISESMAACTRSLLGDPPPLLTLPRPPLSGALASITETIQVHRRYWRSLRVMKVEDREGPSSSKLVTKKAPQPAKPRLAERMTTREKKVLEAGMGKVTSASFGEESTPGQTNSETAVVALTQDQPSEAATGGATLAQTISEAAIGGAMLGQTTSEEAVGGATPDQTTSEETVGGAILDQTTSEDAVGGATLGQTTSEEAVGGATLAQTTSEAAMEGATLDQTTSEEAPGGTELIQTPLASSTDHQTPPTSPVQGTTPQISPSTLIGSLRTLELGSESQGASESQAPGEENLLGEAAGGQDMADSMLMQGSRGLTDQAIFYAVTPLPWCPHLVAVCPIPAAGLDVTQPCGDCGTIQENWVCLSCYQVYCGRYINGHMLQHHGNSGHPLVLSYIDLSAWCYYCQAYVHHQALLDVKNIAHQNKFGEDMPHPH
- Assay: HDAC6 Enzyme Assay
- Type: biochemical
- Cond: test compound at 1.235 μM; substrate Ac-Arg-Gly-Lys(Ac)-AMC, 1 hour at 30° C.; read-out: Percent Inhibition at 1.235 μM
Readout Name: inhibition at 1.235 µM (%)

Guide cases for inhibition at 1.235 µM, answers given:
> print(dat)
                                 smiles.str            readout.name  result.unit  result.number
1      Cn1cccc1C(=O)N1CCc2ncc(C(=O)NO)cc2C1  inhibition at 1.235 µM            %           92.5
2  O=C(NO)c1ccc2c(n1)CCN(C(=O)NCCc1ccccc1)C2  inhibition at 1.235 µM            %           58.3
3  O=C(NO)c1cnc2c(c1)CN(S(=O)(=O)c1ccc(C(F)(F)F)cc1)CC2  inhibition at 1.235 µM            %           94.7
4  Cc1onc(-c2ccccc2)c1NC(=O)N1CCc2nc(C(=O)NO)ccc2C1  inhibition at 1.235 µM            %           23.4
5  O=C(NO)c1cnc2c(c1)CN(C(=O)c1ccc(-c3ccccn3)s1)CC2  inhibition at 1.235 µM            %           97.5

(1) CC(C)(C)OC(=O)N1CCc2cc(C(=O)NO)cnc2C1
(2) Cc1nc(C(=O)N2CCc3nc(C(=O)NO)ccc3C2)cs1
[Q] Lower value of inhibition at 1.235 µM belongs to which: 1 or 2 ? Give the label of your selection.
[A] 2
